The following molecules are shown together with reported inhibition at 0.1 µg/mL values.
Test system: peritoneal neutrophils
ASSAY DETAILS: In vitro neutrophil chemotaxis toward zymosan-activated rat serum (Example 24)
Type: cell-based, mouse
TEST CONDITIONS: Mus musculus, Neutrophil, dose 0.1 μg/ml; read-out: Percent Inhibition of chemotaxis
Counter-ions that a name gives are not always drawn.
Only the number, expressed in %, is required.

Could you share which inhibition at 0.1 µg/mL value was measured for C[C@]12C=CC(=O)C=C1CC[C@@H]1[C@@H]2C(=O)C[C@@]2(C)[C@H]1CC[C@]2(O)C(=O)CO [Prednisone, reference compound] ?
15.5

Could you share which inhibition at 0.1 µg/mL value was measured for CCC1(CC)O[C@H]2O[C@H]([C@@H](COS(=O)(=O)O)OS(=O)(=O)O)[C@H](OS(=O)(=O)O)[C@H]2O1 [Compound V, tripotassium salt] ?
-8

Could you share which inhibition at 0.1 µg/mL value was measured for CC(C)Cc1ccc(C(C)C(=O)O)cc1 (centres unmarked) [Ibuprofen, reference compound] ?
17.5

Could you share which inhibition at 0.1 µg/mL value was measured for CCCN(CCC)S(=O)(=O)c1ccc(C(=O)O)cc1 [Probenecid, reference compound] ?
5.5

Could you share which inhibition at 0.1 µg/mL value was measured for CCCCC[C@H](O)/C=C/[C@H]1[C@H](O)CC(=O)[C@@H]1C/C=C\CCCC(=O)O [PGE2, Prostaglandin E2, reference compound] ?
91.5

Values compiled from patent US5358936A.
